Assay: method code SF-CR, from DOI: 10.1021/jo01283a049
property.measured: logP
Numbers only.

Input line: Reported logP for "CCCC(N)=O" : what is it?
Output line: -0.21

###

Assay: method code SF-AS, from DOI: 10.1021/jo01283a049
Assignment: determine reported logP for the given compounds.
One number for each entry.

Field: example entries. Status: answers known.
{"columns": ["compound", "logP"],
 "data": [
  ["CN(C(N)=S)c1ccccc1", 0.85],
  ["CC12CCC(C(=O)C1=O)C2(C)C (stereo unspecified)", 1.52],
  ["c1ccc2cnccc2c1", 2.08]
]}

Give measured logP for every item shown.
1. CCSCC
2. OCc1ccc2c(c1)OCO2
3. CNC(=S)Nc1ccccc1

Output line:
1.95
1.05
0.85

Recorded values, source the SangsterLogP compilation.
